B1: ZNF511 (parent)
chain: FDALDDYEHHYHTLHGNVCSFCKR

Variants of: B1
testProtocol: protein stability index of a GFP-peptide fusion (GPS, HEK-293T) (PSI 1-6); higher = more stable;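 also: lentivirally expressed fusions sorted by FACS into six bins by GFP to DsRed ratio, PSI derived from sequencing read proportions per bin multiplied by bin number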
experimentalConditions: c terminus: a fixed tail appended
Listing of recorded protein stability index by entry.
assayEndpoint: protein stability index

[
  {
    "mutation": "V18Y",
    "assayEndpoint": "protein stability index",
    "resultValue": 3.7
  },
  {
    "mutation": "N17Q",
    "assayEndpoint": "protein stability index",
    "resultValue": 2.24
  },
  {
    "mutation": "Y7T",
    "assayEndpoint": "protein stability index",
    "resultValue": 4.16
  },
  {
    "mutation": "R24G",
    "assayEndpoint": "protein stability index",
    "resultValue": 4.01
  },
  {
    "mutation": "T13V",
    "assayEndpoint": "protein stability index",
    "resultValue": 3.77
  },
  {
    "mutation": "H10R",
    "assayEndpoint": "protein stability index",
    "resultValue": 3.59
  },
  {
    "mutation": "H9T",
    "assayEndpoint": "protein stability index",
    "resultValue": 3.47
  },
  {
    "mutation": "G16Y",
    "assayEndpoint": "protein stability index",
    "resultValue": 2.85
  },
  {
    "mutation": "F1Q",
    "assayEndpoint": "protein stability index",
    "resultValue": 4.11
  },
  {
    "mutation": "H12P",
    "assayEndpoint": "protein stability index",
    "resultValue": 3.31
  },
  {
    "mutation": "C19H",
    "assayEndpoint": "protein stability index",
    "resultValue": 3.19
  },
  {
    "mutation": "D2G",
    "assayEndpoint": "protein stability index",
    "resultValue": 4.03
  },
  {
    "mutation": "E8G",
    "assayEndpoint": "protein stability index",
    "resultValue": 3.55
  },
  {
    "mutation": "A3M",
    "assayEndpoint": "protein stability index",
    "resultValue": 3.56
  },
  {
    "mutation": "A3Q",
    "assayEndpoint": "protein stability index",
    "resultValue": 4.04
  },
  {
    "mutation": "F1V",
    "assayEndpoint": "protein stability index",
    "resultValue": 4.22
  },
  {
    "mutation": "F21K",
    "assayEndpoint": "protein stability index",
    "resultValue": 4.2
  },
  {
    "mutation": "H12M",
    "assayEndpoint": "protein stability index",
    "resultValue": 2.73
  },
  {
    "mutation": "R24W",
    "assayEndpoint": "protein stability index",
    "resultValue": 2.95
  },
  {
    "mutation": "H9P",
    "assayEndpoint": "protein stability index",
    "resultValue": 3.8
  },
  {
    "mutation": "H15A",
    "assayEndpoint": "protein stability index",
    "resultValue": 3.86
  },
  {
    "mutation": "D6T",
    "assayEndpoint": "protein stability index",
    "resultValue": 3.27
  }
]
